- studySystem: T1, Pot1-DBD_L122A (Schizosaccharomyces pombe, UniProt O13988 1-389, L122A)
- T1 sequence: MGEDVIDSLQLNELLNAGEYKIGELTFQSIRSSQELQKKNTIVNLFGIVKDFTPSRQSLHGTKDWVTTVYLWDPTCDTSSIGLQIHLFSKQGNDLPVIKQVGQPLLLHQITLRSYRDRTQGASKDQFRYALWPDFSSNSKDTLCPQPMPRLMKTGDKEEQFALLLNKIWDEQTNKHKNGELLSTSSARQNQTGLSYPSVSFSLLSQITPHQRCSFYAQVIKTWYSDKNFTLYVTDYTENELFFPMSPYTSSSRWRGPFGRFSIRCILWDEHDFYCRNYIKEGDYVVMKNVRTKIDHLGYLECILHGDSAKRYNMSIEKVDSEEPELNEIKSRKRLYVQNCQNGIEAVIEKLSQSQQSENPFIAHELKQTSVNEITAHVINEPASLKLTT
- experimentalProtocol: filter binding
endpointName: pKd
Keep it numeric: pKd is minus log10 of the concentration in mol/L.

Per the records, this binder ( GGTTACGGTTAC (ssDNA) [12mer] ) has pKd equal to 7.05
